Hi there, I'd appreciate the recorded IC80 (µg/ml) with constrains for every entry that follows.
target: HIV Env, isolate 3016.v5.c45 (HIV)
experiment: cell-based or functional assay

Req: Quick one: IC80 (µg/ml) with constrains for PGDM1400 (antibody, V domains shown) VH: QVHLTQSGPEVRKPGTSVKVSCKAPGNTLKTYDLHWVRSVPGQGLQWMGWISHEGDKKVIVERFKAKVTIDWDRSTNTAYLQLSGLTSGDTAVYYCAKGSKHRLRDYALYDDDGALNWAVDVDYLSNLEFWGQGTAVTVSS VL: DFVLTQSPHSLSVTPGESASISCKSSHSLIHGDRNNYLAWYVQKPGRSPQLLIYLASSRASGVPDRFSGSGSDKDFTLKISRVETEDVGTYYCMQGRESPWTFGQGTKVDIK ?
Resp: > 100 µg/mL

Req: Could you do the same for ePGDM13 (antibody, V domains shown) VH: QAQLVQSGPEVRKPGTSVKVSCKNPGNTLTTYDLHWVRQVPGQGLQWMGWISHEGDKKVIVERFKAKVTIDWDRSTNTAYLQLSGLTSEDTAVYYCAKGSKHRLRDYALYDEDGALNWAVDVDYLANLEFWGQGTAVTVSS VL: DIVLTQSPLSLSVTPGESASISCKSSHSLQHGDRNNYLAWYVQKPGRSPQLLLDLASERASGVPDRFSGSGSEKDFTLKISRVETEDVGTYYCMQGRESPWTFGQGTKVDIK , please?
Resp: > 100 µg/mL

Req: Could you do the same for ePGDM9 (antibody, V domains shown) VH: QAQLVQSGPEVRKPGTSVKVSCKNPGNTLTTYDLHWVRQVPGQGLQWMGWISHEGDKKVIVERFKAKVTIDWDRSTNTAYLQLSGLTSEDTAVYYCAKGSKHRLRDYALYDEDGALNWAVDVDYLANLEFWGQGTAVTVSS VL: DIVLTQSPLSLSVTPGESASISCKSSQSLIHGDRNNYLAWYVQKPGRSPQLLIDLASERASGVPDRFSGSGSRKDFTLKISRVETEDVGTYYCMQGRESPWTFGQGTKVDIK , please?
Resp: > 100 µg/mL

Req: Could you do the same for ePGDM5 (antibody, V domains shown) VH: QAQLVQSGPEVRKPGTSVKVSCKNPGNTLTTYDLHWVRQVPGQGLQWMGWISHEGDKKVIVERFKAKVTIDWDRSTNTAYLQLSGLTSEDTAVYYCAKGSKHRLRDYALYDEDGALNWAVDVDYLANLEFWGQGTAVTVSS VL: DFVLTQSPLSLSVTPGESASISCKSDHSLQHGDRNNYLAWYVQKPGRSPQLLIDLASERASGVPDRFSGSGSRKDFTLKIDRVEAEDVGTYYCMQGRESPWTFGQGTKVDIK , please?
Resp: > 100 µg/mL
